Reported EC50 values follow for various compounds
Tested on: Giardia lamblia GS clone H7
assay_protocol: G. lamblia GS clone H7 trophozoite growth, ATP-based bioluminescence assay (BacTiter-Glo), 1,536-well
Assay type: cell-based
test_settings: Giardia duodenalis; 48 h; 8-point dose response, triplicate; read-out: 48-h Giardia GS clone H7 EC50
Number only, in µM; omit the unit.

These solved cases illustrate the format of a correct answer.
{"columns": ["compound", "EC50 / µM"],
 "data": [
  ["CC(=O)Oc1ccccc1C(=O)Nc1ncc([N+](=O)[O-])s1 [Nitazoxanide]", 6.45],
  ["Cc1ncc([N+](=O)[O-])n1CCO [Metronidazole]", 7.12],
  ["O=C1NCCN1c1ncc([N+](=O)[O-])s1 [Niridazole]", 6.42]
]}

Query: Which EC50 value is on record for CS(=O)(=O)Nc1ccc(C(=O)O[C@@H](Cc2c(Cl)c[n+]([O-])cc2Cl)c2ccc(OC(F)F)c(OCC3CC3)c2)cc1OCC1CC1 [CHF-6001] ?
Response: 2.03

Query: Endpoint output: EC50 of Cc1ncc([N+](=O)[O-])n1CC(O)CCl (stereo not shown) [Ornidazole] . Value?
Response: 1.82

Query: Which EC50 reading was recorded for the compound Cn1c([N+](=O)[O-])cnc1N1CCN(S(C)(=O)=O)C1=O [Satranidazole] ?
Response: 2.49

Query: What value of EC50 has been reported for the following compound? CC(=O)C[C@H]1CCCCN1 [Pelletierine]
Response: 20.3

Query: Value lookup for EC50; key = CSc1ccc(OCc2ncc([N+](=O)[O-])n2C)cc1 [Fexinidazole]
Response: 6.39

Query: Which EC50 is listed for CC(=O)Nc1ncc([N+](=O)[O-])s1 [Aminitrozole] ?
Response: 7.11

Query: For Cn1c([N+](=O)[O-])cnc1/C=C/c1ccnc(N)n1 [Azanidazole] , what is its reported EC50?
Response: 0.72

Query: Give its EC50 value. Item: Cc1ncc([N+](=O)[O-])n1CC(C)O (stereo not shown) [Secnidazole]
Response: 6.57

Query: Which EC50 is listed for CCCN(CCC)c1ccc(/N=N/c2ccccc2C(=O)O)cc1 [Propyl red] ?
Response: 5.78

Query: Field request: EC50 | item: Cn1c([N+](=O)[O-])cnc1/C=N/N1CC(CN2CCOCC2)OC1=O (stereo not shown) [Moxnidazole]
Response: 6.11

Query: Please look up its EC50: C=CC(=O)N[C@@H]1CN(c2nc(Nc3cn(C)nc3OC)c3ncn(C)c3n2)C[C@H]1F [Mavelertinib]
Response: 2.34

Query: EC50 for O=[N+]([O-])c1ccc(-c2nc3ccccc3[nH]2)o1 [2-(5-Nitro-2-furyl) benzimidazole] ?
Response: 5.8

Query: GET /values?readout=EC50&item= COC(=S)NCCn1c([N+](=O)[O-])cnc1C [Carnidazole]
Response: 3.01

Query: Consider the compound shown here: Cc1ncc([N+](=O)[O-])n1CCOC(=O)c1ccccc1 [Benzoyl metronidazole] What is its recorded EC50?
Response: 2.43

Query: Recorded EC50 for Cc1ncc([N+](=O)[O-])n1CCc1ccncc1 [Panidazole] , please?
Response: 1.85

Query: Entry under review: CCS(=O)(=O)CCn1c([N+](=O)[O-])cnc1C [Tinidazole] . Reported EC50?
Response: 5.7
